Listing of entries alongside the reported ELISA signal at phage dilution factor 9.
target: T1, TRBV5-1 antigenic peptide No. 1 (TQTPRYLIKTRGQQ), peptide alone (Homo sapiens); assay: ELISA; confirmatory monoclonal phage ELISA; antigens peptide alone, peptide-BSA, peptide-biotin; controls PBS, 10% BSA-PBS, PBS-streptavidin; phage dilution factors 1, 3, 9; settings: one partner purified
T1 construct: short form of antigenic peptide No. 1 of the TRBV5-1 segment of the human TCR beta chain; also called Ag1; Peptide N. 1; source: synthetic peptide (Proteogenix)
T1 chain: TQTPRYLIKTRGQQ
Give only the figure.

scFv clone A5 (scFv, V domains shown, as printed identical to the VH of A2; tested as phage clone in the confirmatory monoclonal ELISA; source: phage display clone from the human naive scFv library LiAb-SFMAX (Proteogenix), amplified in E. coli TG1) VH: QVQLQQSGPGLVKPSQTLSLTCAISGDSVSSNSAAWNWIRQSPSRGLEWLGRTYYRSKWYNDYAVSVKSRITINPDTSKNQFSLQLNSVTPEDTAVYYCARDQAAAEVYFDYWGQGTLVTVSS VL: NFMLTQPHSVSESPGKTVTISCTRSSGSIASNYVQWYQQRPGSSPTTVIYEDNQRPSGVPDRFSGSIDSSSNSASLTISGLKTEDEADYYCQSYDSSNHWVFGGGTKVTVL    0.11
scFv clone C10 (scFv, V domains shown, tested as phage clone in the confirmatory monoclonal ELISA; source: phage display clone from the human naive scFv library LiAb-SFMAX (Proteogenix), amplified in E. coli TG1) VH: EVQLVQSGAEVKKPGSSVKVSCKASGGTFSSYAISWVRQAPGQGLEWMGGIIPIFGTANYAQKFQGRVTITADKSTSTAYMELSSLRSEDTAVYYCAREPLRGYSGYDFYYYGMDVWGQGTMVTVSS VL: SYELTQPHSVSGSPGETVTISCAGSGGSIASNYVQWYQQRPGSAPTTLIYEDKVRPSGVPDRFSGSIDYSSDSASLTISGLKTEDEADYYCQSADSTSTYVFGTGTKVTVL    0.42
scFv clone A8 (scFv, V domains shown, tested as phage clone in the confirmatory monoclonal ELISA; source: phage display clone from the human naive scFv library LiAb-SFMAX (Proteogenix), amplified in E. coli TG1) VH: QVQLVQSGPEMKKAGASVRVSCKGSGYTFSSFDINWVRQVPGQGLEWMGWMNPDTGNTGLAQKFQGRVTMTRDTSIRTAYMELRSLRSDDTAVYYCARDAPRNGRGMDVWGQGTMVTVSS VL: SYELTQPPSVSVSPGQTARITCSGDALPKQYAYWYQQKPGQAPVLVIYQDTKRPSGIPERFSGSSSGTTVTLTISGVQAEDEADYYCQSADSSGTYPVFGGGTKLTVL    0.14
scFv clone A2 (scFv, V domains shown, tested as phage clone in the confirmatory monoclonal ELISA; source: phage display clone from the human naive scFv library LiAb-SFMAX (Proteogenix), amplified in E. coli TG1) VH: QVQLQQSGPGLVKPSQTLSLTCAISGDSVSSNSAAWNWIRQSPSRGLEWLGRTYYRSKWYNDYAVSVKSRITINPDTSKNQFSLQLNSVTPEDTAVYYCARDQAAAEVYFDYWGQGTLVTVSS VL: NFMLTQPHSVSESPGKTVTISCTRSSGSIASNYLQWYQQRPGSAPTTVIYEDNQRPSGVPDRFSGSIDSSSNSASLTISGLKTEDEADYYCQSYDNRNHWVFGGGTQLTVL    0.35
scFv clone D5 (scFv, V domains shown, tested as phage clone in the confirmatory monoclonal ELISA; source: phage display clone from the human naive scFv library LiAb-SFMAX (Proteogenix), amplified in E. coli TG1) VH: QVQLVQSGAEVKKPGASVKVSCKPSGYYFNGYDITWVRQAIGQGLEWMGWMNPNSGNRDYAHQFQGRLTMTWDTSLSTAYLELNNLQSDDTAIYYCARERVSSGLDFWGQGTLVTVSS VL: SYELTQPPSVSVSPGQTARITCSGDALPKQYAYWYQQKPGQAPVLLIYKDSERPSGIPERFSGSSSGTTVTLTISGVQAEDEADYYCQSADSSGTYVVFGGGTQLTVL    0.13

So for scFv clone A12 (scFv, V domains shown, tested as phage clone in the confirmatory monoclonal ELISA; lead scFv from which the r-hIgG1 mAb was made; also called lead scFv; source: phage display clone from the human naive scFv library LiAb-SFMAX (Proteogenix), amplified in …) VH: QVQLQQWGAGLLKPSETLSLTCAVYGGSFSGYYWSWIRQPPGKGLEWIGEINHSGSTNYNPSLKSRVTISVDTSKNQFSLKLSSVTAADTAVYYCARWDLDYWGQGTLVTVSS VL: EIVLTQSPLSLPVTLGQSASISCRSSQSLVHSDGNTYLNWFQQRPGQSPRRLIYQVSKRDSGVPDRFSGSGSGTDFTLRISRVEAEDVGFYYCMQGTHWPPITFGQGTRLEIK , the logged ELISA signal at phage dilution factor 9 turned out to be 0.12
